test: Time to reach maximum plasma concentration was determined in dog after 1 mg/kg (i.v.) and 5 mg/kg (p.o.) administration; type: ADME, organism-based, Canis lupus familiaris; details: po
Endpoint: Tmax
Answer format reminder: number followed by unit.

Which measured Tmax value corresponds to COc1cc(-c2nn([C@H]3CC[C@H](N4CCN(C)CC4)CC3)c3ncnc(N)c23)ccc1NC(=O)c1cc2ccccc2n1C ?
24 h

====

test: Volume of distribution was determined in mouse after 5 mg/kg (i.v.) and 6 mg/kg (p.o.) administration; type: ADME, organism-based; settings: in vivo, iv
Endpoint: Vd (L/kg)
A number alone suffices; assume L/kg.

Which measured Vd value corresponds to COc1cc(-c2nn([C@H]3CC[C@H](N4CCN(C)CC4)CC3)c3ncnc(N)c23)ccc1NC(=O)c1cc2ccccc2n1C ?
25
